# assay_target: Histamine-H1 (Homo sapiens)
# Sequence (P35367 whole entry): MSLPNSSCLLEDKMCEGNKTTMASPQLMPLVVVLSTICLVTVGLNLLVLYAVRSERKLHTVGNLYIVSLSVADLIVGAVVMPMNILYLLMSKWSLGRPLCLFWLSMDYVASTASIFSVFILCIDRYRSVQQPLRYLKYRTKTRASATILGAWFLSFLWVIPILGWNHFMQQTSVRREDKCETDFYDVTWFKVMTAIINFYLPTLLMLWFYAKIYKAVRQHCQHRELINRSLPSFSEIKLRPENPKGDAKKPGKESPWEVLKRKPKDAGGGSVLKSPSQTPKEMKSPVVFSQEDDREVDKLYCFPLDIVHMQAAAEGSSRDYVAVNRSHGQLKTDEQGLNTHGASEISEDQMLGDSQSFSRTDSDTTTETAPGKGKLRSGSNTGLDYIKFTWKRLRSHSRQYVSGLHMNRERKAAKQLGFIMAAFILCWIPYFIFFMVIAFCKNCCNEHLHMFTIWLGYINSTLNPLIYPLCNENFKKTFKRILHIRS
# procedure_details: Receptor binding Histamine-H1
# assay_conditions: radioligand [3H]-pyrilamine, read-out: Ki(nM) Compound 1
quantity_name: Ki

Enquiry: Param readout = Ki; param system = Histamine-H1 (Homo sapiens); param query = `Nc1cc2cccc(N3CCNCC3)c2oc1=O` ; response: value
Return: > 1000 nM

----------
# assay_target: UniProtKB P32241
# Sequence (P32241 31-457): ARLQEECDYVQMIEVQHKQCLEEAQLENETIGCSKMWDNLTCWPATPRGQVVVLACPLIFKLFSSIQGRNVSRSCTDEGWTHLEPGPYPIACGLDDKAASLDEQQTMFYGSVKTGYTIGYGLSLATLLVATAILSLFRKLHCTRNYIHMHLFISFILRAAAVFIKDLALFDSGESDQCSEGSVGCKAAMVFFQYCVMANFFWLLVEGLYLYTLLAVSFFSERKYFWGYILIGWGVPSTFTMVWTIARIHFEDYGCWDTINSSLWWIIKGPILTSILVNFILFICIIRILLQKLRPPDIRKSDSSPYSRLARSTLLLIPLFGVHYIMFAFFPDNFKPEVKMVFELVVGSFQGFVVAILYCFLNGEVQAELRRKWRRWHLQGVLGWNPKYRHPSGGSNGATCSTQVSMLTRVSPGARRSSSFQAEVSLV
# procedure_details: Receptor binding VIP1
# assay_conditions: radioligand [125I]-VIP, read-out: Ki(nM) Compound 1
quantity_name: Ki

Enquiry: // query Ki value for entry `Nc1cc2cccc(N3CCNCC3)c2oc1=O`
Return: > 1000 nM

----------
# assay_target: 5-HT2A (Homo sapiens)
# Sequence (P28223 whole entry): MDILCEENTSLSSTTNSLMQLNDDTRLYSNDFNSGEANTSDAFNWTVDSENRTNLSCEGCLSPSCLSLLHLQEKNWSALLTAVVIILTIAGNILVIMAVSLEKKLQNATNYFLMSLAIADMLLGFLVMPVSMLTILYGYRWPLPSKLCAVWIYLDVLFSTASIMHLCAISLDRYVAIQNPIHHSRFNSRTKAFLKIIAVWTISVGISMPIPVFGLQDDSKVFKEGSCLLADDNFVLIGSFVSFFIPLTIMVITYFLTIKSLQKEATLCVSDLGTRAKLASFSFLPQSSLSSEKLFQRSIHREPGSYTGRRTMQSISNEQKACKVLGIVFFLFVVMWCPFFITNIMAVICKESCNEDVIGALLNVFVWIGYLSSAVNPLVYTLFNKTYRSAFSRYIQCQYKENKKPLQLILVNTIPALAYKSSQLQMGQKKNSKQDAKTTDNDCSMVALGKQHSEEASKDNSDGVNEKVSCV
# procedure_details: Receptor binding 5-HT2A
# assay_conditions: radioligand [3H]-ketanserin, read-out: Ki(nM) Compound 1
quantity_name: Ki (nM)
Hi! Could you send only the number? It should be in nM, unit omitted.

Enquiry: // query Ki value for entry `Nc1cc2cccc(N3CCNCC3)c2oc1=O`
Return: 630

----------
# assay_target: Muscarine-M5 (Homo sapiens)
# Sequence (P08912 whole entry): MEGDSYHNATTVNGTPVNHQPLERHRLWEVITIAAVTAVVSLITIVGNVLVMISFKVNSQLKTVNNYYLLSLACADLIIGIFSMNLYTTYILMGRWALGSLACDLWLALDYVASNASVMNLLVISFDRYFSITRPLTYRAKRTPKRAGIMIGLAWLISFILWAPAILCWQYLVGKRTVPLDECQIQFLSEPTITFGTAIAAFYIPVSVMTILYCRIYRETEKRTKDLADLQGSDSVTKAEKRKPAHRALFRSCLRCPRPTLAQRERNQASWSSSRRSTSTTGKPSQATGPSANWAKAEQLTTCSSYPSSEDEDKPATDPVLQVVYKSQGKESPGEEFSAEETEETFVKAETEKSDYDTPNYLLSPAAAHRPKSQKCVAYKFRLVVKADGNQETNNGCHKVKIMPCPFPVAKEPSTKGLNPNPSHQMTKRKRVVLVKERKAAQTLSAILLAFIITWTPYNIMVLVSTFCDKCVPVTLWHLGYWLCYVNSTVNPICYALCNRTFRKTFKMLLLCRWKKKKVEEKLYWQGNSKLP
# procedure_details: Receptor binding Muscarine-M5
# assay_conditions: radioligand [3H]-4-DAMP, read-out: Ki(nM) Compound 1
quantity_name: Ki

Enquiry: // query Ki value for entry `Nc1cc2cccc(N3CCNCC3)c2oc1=O`
Return: > 1000 nM

----------
# assay_target: Dopamine-D5 (Homo sapiens, UniProt P21918)
# Sequence (P21918 whole entry): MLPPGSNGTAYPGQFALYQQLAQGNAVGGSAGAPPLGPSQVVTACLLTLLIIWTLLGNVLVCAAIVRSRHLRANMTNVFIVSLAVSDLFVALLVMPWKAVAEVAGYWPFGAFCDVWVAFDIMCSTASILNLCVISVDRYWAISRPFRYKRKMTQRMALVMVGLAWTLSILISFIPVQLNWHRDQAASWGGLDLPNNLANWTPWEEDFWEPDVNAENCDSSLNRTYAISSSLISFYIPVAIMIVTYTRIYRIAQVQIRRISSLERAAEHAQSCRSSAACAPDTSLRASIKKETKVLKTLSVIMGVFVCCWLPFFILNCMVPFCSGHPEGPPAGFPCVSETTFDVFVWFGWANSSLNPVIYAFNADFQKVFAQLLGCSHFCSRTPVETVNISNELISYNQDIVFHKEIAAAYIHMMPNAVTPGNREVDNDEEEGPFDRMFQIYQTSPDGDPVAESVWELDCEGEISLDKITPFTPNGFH
# procedure_details: Receptor binding Dopamine-D5
# assay_conditions: radioligand [3H]-SCH 23390, read-out: Ki(nM) Compound 1
quantity_name: Ki

Enquiry: // query Ki value for entry `Nc1cc2cccc(N3CCNCC3)c2oc1=O`
Return: > 1000 nM

----------
# assay_target: CRF (Homo sapiens)
# Sequence (P34998 24-415): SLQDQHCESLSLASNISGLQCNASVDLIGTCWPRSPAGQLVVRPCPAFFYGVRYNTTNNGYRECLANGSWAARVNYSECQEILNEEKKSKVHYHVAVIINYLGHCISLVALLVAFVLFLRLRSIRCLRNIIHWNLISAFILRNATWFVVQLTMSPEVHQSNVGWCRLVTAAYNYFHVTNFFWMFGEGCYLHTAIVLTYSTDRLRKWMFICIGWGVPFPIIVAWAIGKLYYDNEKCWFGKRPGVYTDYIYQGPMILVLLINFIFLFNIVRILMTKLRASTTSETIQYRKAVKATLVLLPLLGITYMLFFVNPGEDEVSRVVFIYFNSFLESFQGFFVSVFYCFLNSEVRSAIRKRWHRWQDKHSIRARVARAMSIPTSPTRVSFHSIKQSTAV
# procedure_details: Receptor binding CRF
# assay_conditions: radioligand [125I]-oCRF, read-out: Ki(nM) Compound 1
quantity_name: Ki

Enquiry: // query Ki value for entry Nc1cc2cccc(N3CCNCC3)c2oc1=O [Compound 1]
Return: > 10000 nM

----------
# assay_target: UniProt:P30542
# Sequence (P30542 whole entry): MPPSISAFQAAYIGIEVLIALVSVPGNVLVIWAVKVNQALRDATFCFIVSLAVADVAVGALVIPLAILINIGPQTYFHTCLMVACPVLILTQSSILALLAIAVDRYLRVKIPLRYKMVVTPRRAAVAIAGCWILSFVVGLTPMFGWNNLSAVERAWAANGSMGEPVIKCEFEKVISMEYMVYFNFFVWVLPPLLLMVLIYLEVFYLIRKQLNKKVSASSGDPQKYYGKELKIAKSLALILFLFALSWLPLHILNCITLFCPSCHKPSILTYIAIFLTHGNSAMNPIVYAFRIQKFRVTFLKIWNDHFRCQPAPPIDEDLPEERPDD
# procedure_details: Receptor binding Adenosine-A1
# assay_conditions: radioligand [3H]-DPCPX, read-out: Ki(nM) Compound 1
quantity_name: Ki

Enquiry: Param readout = Ki; param system = UniProt:P30542; param query = Nc1cc2cccc(N3CCNCC3)c2oc1=O [Compound 1] ; response: value
Return: > 1000 nM

----------
# assay_target: bradykinin (Homo sapiens, UniProt P30411)
# Sequence (P30411 whole entry): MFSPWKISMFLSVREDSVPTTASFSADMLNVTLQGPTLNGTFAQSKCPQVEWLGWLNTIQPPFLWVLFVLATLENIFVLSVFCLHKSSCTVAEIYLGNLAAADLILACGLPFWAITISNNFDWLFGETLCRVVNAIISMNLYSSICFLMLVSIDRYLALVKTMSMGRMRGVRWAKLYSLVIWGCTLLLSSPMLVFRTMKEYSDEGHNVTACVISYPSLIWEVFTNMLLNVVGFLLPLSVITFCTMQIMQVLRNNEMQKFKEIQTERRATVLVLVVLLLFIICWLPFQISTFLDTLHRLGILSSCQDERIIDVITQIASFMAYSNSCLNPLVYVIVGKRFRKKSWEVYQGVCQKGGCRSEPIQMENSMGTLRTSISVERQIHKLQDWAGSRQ
# procedure_details: Receptor binding bradykinin
# assay_conditions: radioligand [3H]-bradykinin, read-out: Ki(nM) Compound 1
quantity_name: Ki

Enquiry: // query Ki value for entry Nc1cc2cccc(N3CCNCC3)c2oc1=O [Compound 1]
Return: > 1000 nM

----------
# assay_target: Adenosine-A2A (Homo sapiens, UniProt P29274)
# Sequence (P29274 whole entry): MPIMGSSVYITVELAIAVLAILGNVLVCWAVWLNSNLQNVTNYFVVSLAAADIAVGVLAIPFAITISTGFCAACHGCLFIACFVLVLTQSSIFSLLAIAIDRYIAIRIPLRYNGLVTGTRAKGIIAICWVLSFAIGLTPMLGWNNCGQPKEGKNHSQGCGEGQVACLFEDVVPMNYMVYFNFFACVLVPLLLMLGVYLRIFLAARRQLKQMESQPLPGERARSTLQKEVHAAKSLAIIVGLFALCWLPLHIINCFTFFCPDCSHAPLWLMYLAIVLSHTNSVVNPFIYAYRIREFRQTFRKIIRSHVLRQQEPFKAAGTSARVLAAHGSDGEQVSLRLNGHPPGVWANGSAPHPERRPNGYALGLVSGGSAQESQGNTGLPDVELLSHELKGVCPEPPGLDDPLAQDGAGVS
# procedure_details: Receptor binding Adenosine-A2A
# assay_conditions: radioligand [3H]-CGS 21680, read-out: Ki(nM) Compound 1
quantity_name: Ki

Enquiry: Param readout = Ki; param system = Adenosine-A2A (Homo sapiens, UniProt P29274); param query = Nc1cc2cccc(N3CCNCC3)c2oc1=O [Compound 1] ; response: value
Return: > 1000 nM

----------
# assay_target: UniProt:P24530
# Sequence (P24530 27-442): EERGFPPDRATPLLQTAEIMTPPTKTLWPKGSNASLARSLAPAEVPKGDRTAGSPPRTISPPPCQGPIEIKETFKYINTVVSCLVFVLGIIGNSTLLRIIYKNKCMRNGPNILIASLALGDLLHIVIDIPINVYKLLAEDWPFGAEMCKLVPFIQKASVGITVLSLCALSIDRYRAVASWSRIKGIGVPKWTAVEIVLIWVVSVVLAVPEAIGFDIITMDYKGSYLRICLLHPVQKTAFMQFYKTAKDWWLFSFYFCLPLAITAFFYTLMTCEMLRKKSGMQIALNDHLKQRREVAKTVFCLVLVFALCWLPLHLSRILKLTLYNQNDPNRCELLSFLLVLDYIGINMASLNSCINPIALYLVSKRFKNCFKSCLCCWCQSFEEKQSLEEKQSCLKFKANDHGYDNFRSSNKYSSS
# procedure_details: Receptor binding Endothelin-ETB
# assay_conditions: radioligand [125I]-endothelin-1, read-out: Ki(nM) Compound 1
quantity_name: Ki

Enquiry: // query Ki value for entry `Nc1cc2cccc(N3CCNCC3)c2oc1=O`
Return: > 1000 nM
